Cited source: PubChem BioAssay (NCI)

test system: K-562 leukemia; test: NCI-60 one-dose screen, 48 h; conditions: 10 µM unless noted
The panel holds about 83,000 compounds, 20% with a hit somewhere; the sample as a whole holds those more often. Active and inactive are the calls of the source. Rule for the calls: active = growth percent below 10; inactive = the rest.
Choose one outcome from this list and give only that: True = active, False = inactive

# example entries with known answers
molecule=O=C(Cc1ccc(/C=C/C(=O)c2nccs2)cc1)Nc1ccccc1 discrete_label=False
molecule=O=C(/C=C(/C=C/c1coc2ccccc12)OB(F)F)/C=C/c1coc2ccccc12 discrete_label=False
molecule=COc1ccc(N2CCN(c3ccc(NC4=C(Cl)C(=O)c5ncccc5C4=O)cc3)CC2)cc1 discrete_label=True
molecule=COc1cccc(-c2ccc3c(c2)NC(=O)/C3=C\c2ccc[nH]2)c1 discrete_label=False
molecule=C#CCNC(=O)[C@H](Cc1ccccc1)NC(=O)[C@]12CC[C@@H](C(=C)C)[C@@H]1[C@H]1CC[C@@H]3[C@@]4(C)CCC(=O)C(C)(C)[C@@H]4CC[C@@]3(C)[C@]1(C)CC2 discrete_label=False

Request: Which outcome did this test record for the molecule COc1cc(OC)cc(C(=O)C[n+]2cccc3cc[nH]c32)c1 ?
Response: False

Request: Which outcome did this test record for the molecule Cn1ccnc1C(=O)/C=C/c1ccc(CC(=O)Nc2ccc(F)cc2)cc1 ?
Response: True

Request: Which outcome did this test record for the molecule CCOC(=O)Oc1c(OC)cc(C(=O)c2ccc(OC)c(OC(=O)CCl)c2OC)cc1OC ?
Response: False

Request: Which outcome did this test record for the molecule ClC1=C(Br)C(Br)(Br)C(=C(Br)Br)C1(Br)Br ?
Response: False

Request: Which outcome did this test record for the molecule CCCCOc1ccc(/C(C)=N/Nc2cc(C)nc3ccc(Br)cc23)cc1 ?
Response: False

Request: Which outcome did this test record for the molecule O=S(=O)(NCCNc1nccc(-c2c(-c3cccc(O)c3)nc3occn23)n1)c1ccc(C(F)(F)F)cc1 ?
Response: False

Request: Which outcome did this test record for the molecule C=C1C(=O)O[C@H]2[C@H]1CC/C(C(=O)NCCCCCNC(=O)/C1=C/CC[C@@]3(C)O[C@H]3[C@H]3OC(=O)C(=C)[C@@H]3CC1)=C\CC[C@@]1(C)O[C@@H]21 ?
Response: False

Request: Which outcome did this test record for the molecule CCCCCN1C=C/C(=C\C(=O)N(C)c2ccc(Oc3ccccc3)cc2)c2ccccc21 ?
Response: False

Request: Which outcome did this test record for the molecule Nc1nc(Nc2ccccc2SSc2ccccc2Nc2nc(N)nc(-c3ccc(C(F)(F)F)cc3)n2)nc(-c2ccc(C(F)(F)F)cc2)n1 ?
Response: False

Request: Which outcome did this test record for the molecule CCCCCN1C=C/C(=C\C(=O)N2CCCc3ccccc32)c2ccccc21 ?
Response: False

Request: Which outcome did this test record for the molecule O=Cc1cc2ccccc2nc1Oc1ccc(C(F)(F)F)cc1 ?
Response: False

Request: Which outcome did this test record for the molecule CCCCCC(=O)Oc1ccc(/C(=C(\C)c2ccccc2)c2ccc(OCCN3CCCCC3)cc2)cc1 ?
Response: False

Request: Which outcome did this test record for the molecule COc1ccc(C(=O)C2C(C#N)C(C#N)C3c4ccccc4C=CN23)cc1 (configuration not stated) ?
Response: False

Request: Which outcome did this test record for the molecule Cc1cccc(NC(=O)Nc2ccc(-n3cnc4cc(-c5ccc(O)cc5)ccc43)cc2)c1 ?
Response: False

Request: Which outcome did this test record for the molecule O=C(Nc1ccc(Cl)cc1)c1cc(NCc2cc(O)ccc2O)ccc1O ?
Response: False

Request: Which outcome did this test record for the molecule Cc1ccc(/C=N/NC(=O)CSc2nc3ccccc3c(=O)n2Cc2ccc(S(N)(=O)=O)cc2)cc1 ?
Response: False

Request: Which outcome did this test record for the molecule CN1CCN(C(=O)[C@]23CCC(C)(C)C[C@H]2C2=CC[C@@H]4[C@@]5(C)C/C(=C/c6ccncc6)C(=O)C(C)(C)[C@@H]5CC[C@@]4(C)[C@]2(C)CC3)CC1 ?
Response: False

Request: Which outcome did this test record for the molecule CCC(CC)NCC(C)(C)O ?
Response: False

Request: Which outcome did this test record for the molecule COc1cc(F)c(/C=C/c2cc(/C=C/c3cc(OC)c(OC)cc3F)on2)cc1OC ?
Response: False

Request: Which outcome did this test record for the molecule O=C(CCN1CCCC1)Nc1ccc2c(Nc3ccc(F)cc3)c3ccccc3nc2c1 ?
Response: True

Request: Which outcome did this test record for the molecule Cc1cc2nc3c4cccc(O)c4n(CCN(C)C)c3nc2cc1C ?
Response: True
